Data provenance is ChEMBL document CHEMBL3576825.

experiment: Cytotoxicity against human CRL2221 cells after 48 hrs by sulforhodamine B assay; format: cell-based
I'd appreciate it if you could supply GI50 at 48 h values for the items below.
One number for each entry, in nM.

smiles-data | measurement-units | GI50 at 48 h
CC(C)C[C@H]1OC(=O)[C@H](C(C)C)NC(=O)[C@H](C)OC(=O)[C@@H](C(C)C)NC(=O)[C@@H](CC2CCCCC2)OC(=O)[C@H]([C@@H](C)O)NC(=O)[C@H](C)OC(=O)[C@@H](C(C)C)NC(=O)[C@@H](CC(C)C)OC(=O)[C@H](C(C)C)NC(=O)[C@H](C)OC(=O)[C@@H](C(C)C)NC1=O | nM | 3.35

// switching to the query compound
Form field: reported GI50 at 48 h of CC(C)C[C@H]1OC(=O)[C@H](C(C)C)NC(=O)[C@H](C)OC(=O)[C@@H](C(C)C)NC(=O)[C@@H](CC2CCCCC2)OC(=O)[C@H]([C@@H](C)OC(=O)CCCN(C)C(=O)OCc2ccc(O[C@@H]3O[C@H](C(=O)O)[C@@H](O)[C@H](O)[C@H]3O)c([N+](=O)[O-])c2)NC(=O)[C@H](C)OC(=O)[C@@H](C(C)C)NC(=O)[C@@H](CC(C)C)OC(=O)[C@H](C(C)C)NC(=O)[C@H](C)OC(=O)[C@@H](C(C)C)NC1=O
30

----------
system: MCF7; test: Cytotoxicity against human MCF7 cells after 48 hrs by sulforhodamine B assay; type: functional; settings: MCF7, 48 h
Output TRUE for records whose GI50 is lower than 2 nM, FALSE for records at or above 2 nM.

Solved cases below.
smiles-data | measurement-target | assigned-label
CC(C)[C@@H]1NC(=O)[C@H](C)OC(=O)[C@@H](C(C)C)NC(=O)[C@@H](CC2CCCCC2)OC(=O)[C@H](C(C)C)NC(=O)[C@H](C)OC(=O)[C@@H](C(C)C)NC(=O)[C@@H](CC2CCCCC2)OC(=O)[C@H](Cc2ccc(OC(C)(C)C)cc2)NC(=O)[C@H](C)OC(=O)[C@@H](C(C)C)NC(=O)[C@@H](CC2CCCCC2)OC1=O | MCF7 | FALSE
CC(C)[C@@H]1NC(=O)[C@H](C)OC(=O)[C@@H](C(C)C)NC(=O)[C@@H](CC2CCCCC2)OC(=O)[C@H](C(C)C)NC(=O)[C@H](C)OC(=O)[C@@H](C(C)C)NC(=O)[C@@H](CC2CCCCC2)OC(=O)[C@H](C(C)C)NC(=O)[C@H](C)OC(=O)[C@@H](C(C)C)NC(=O)[C@@H](CC2CCCCC2)OC1=O | MCF7 | FALSE
CC(C)C[C@H]1OC(=O)[C@H](C(C)C)NC(=O)[C@H](C)OC(=O)[C@@H](C(C)C)NC(=O)[C@@H](CC(C)C)OC(=O)[C@H](C(C)C)NC(=O)[C@H](C)OC(=O)[C@@H](C(C)C)NC(=O)[C@@H](CC2CCCCC2)OC(=O)[C@H](Cc2ccc(O)cc2)NC(=O)[C@H](C)OC(=O)[C@@H](C(C)C)NC1=O | MCF7 | TRUE
CC(C)C[C@H]1OC(=O)[C@H](C(C)C)NC(=O)[C@H](C)OC(=O)[C@@H](C(C)C)NC(=O)[C@@H](CC(C)C)OC(=O)[C@H](C(C)C)NC(=O)[C@H](C)OC(=O)[C@@H](C(C)C)NC(=O)[C@@H](CC(C)C)OC(=O)[C@H](C(C)C)NC(=O)[C@H](C)OC(=O)[C@@H](C(C)C)NC1=O | MCF7 | TRUE
CC(C)C[C@H]1OC(=O)[C@H](C(C)C)NC(=O)[C@H](C)OC(=O)[C@@H](C(C)C)NC(=O)[C@@H](CC(C)C)OC(=O)[C@H](C(C)C)NC(=O)[C@H](C)OC(=O)[C@@H](C(C)C)NC(=O)[C@@H](CC2CCCCC2)OC(=O)[C@H](Cc2ccc(OC(C)(C)C)cc2)NC(=O)[C@H](C)OC(=O)[C@@H](C(C)C)NC1=O | MCF7 | FALSE

Hi there! Is GI50 for CC(C)[C@@H]1NC(=O)[C@H](C)OC(=O)[C@@H](C(C)C)NC(=O)[C@@H](CC2CCCCC2)OC(=O)[C@H]([C@@H](C)O)NC(=O)[C@H](C)OC(=O)[C@@H](C(C)C)NC(=O)[C@@H](CC2CCCCC2)OC(=O)[C@H](C(C)C)NC(=O)[C@H](C)OC(=O)[C@@H](C(C)C)NC(=O)[C@@H](CC2CCCCC2)OC1=O below 2 nM, do you know?
FALSE

Note, next up: CC(C)C[C@H]1OC(=O)[C@H](C(C)C)NC(=O)[C@H](C)OC(=O)[C@@H](C(C)C)NC(=O)[C@@H](CC(C)C)OC(=O)[C@H]([C@@H](C)O)NC(=O)[C@H](C)OC(=O)[C@@H](C(C)C)NC(=O)[C@@H](CC(C)C)OC(=O)[C@H](C(C)C)NC(=O)[C@H](C)OC(=O)[C@@H](C(C)C)NC1=O
TRUE
